test: chemical genetic growth profiling, strain panel (AID 1159580);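 note: tested at 20 µM; growth read once vehicle control cultures reached saturation at 30 °C; lower values mean less growth of the strain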; conditions: S. cerevisiae deletion strains, growth OD, locus YML032C, strain rad52, active compounds read low
In all, about 5,500 compounds went through this assay and about 2,000 (36%) were called active. Not shown: some 18% with an inconclusive outcome. Some of the results follow.
# label = T if normalized growth < 1 else F

[
  {
    "molecule": "CCOC(=O)CCCCCCCCCCCCC1C=CCC1 (stereo unspecified)",
    "discrete label": "T"
  }
]

Turning now to a further record.
Given the entry "CC1=C(/C=C/C(C)=C/C=C/C(C)=C/C(=O)O)C(C)(C)CCC1" , would its reported normalized growth be below 1? F
